System: nude mice, HT29 intrarenal xenograft, tumor weight T/C
assay_overview: NCI In Vivo Anticancer Drug Screen. Data for tumor model HT29;CX-1 Human Adenocarcinoma (MER+) (intrarenal inoculation) in NU/NU Swiss (nude) mice
experimental_conditions: endpoint: mean tumor weight change; dose: 800.0 mg/kg/injection; schedule: Q01DX010 (sc); vehicle: saline; higher = larger tumour
Inconclusive results are not listed.
result_type: T/C

Worked examples follow.
compound="CCCC(=O)Nc1ncnc2c1ncn2C1OC2COP(=O)(O)OC2C1OC(=O)CCC (stereo not drawn)" result_type=T/C test_value="44 % of control"
compound=Cc1cc2nc3[nH]c4ccccc4c3nc2cc1C result_type=T/C test_value="84 % of control"
compound="CN1c2c(nc(N)[nH]c2=O)NCC1CCNc1ccc(C(=O)NC(CCC(=O)O)C(=O)O)cc1 (stereo not drawn)" result_type=T/C test_value="51 % of control"

Short answer on nude mice, HT29 intrarenal xenograft, tumor weight T/C for CCCC(=O)O , T/C: 79 % of control

Measured T/C for this entry CC(=O)NCCCCCCNC(C)=O on nude mice, HT29 intrarenal xenograft, tumor weight T/C: 95 % of control

# value of T/C, nude mice, HT29 intrarenal xenograft, tumor weight T/C, item Nc1n[nH]c(N)n1 = 215 % of control

Log: nude mice, HT29 intrarenal xenograft, tumor weight T/C, compound Nc1ncnc2c1ncn2C1OC(COP(=O)(O)O)C(O)C1O (stereo not drawn) , T/C = 67 % of control

I looked up O=c1cnn(C2OC(CO)C(O)C2O)c(=O)[nH]1 (stereo not drawn) and its T/C for nude mice, HT29 intrarenal xenograft, tumor weight T/C was 97 % of control

* * *

Tested on: nude mice, HT29 intrarenal xenograft, tumor weight T/C
assay_overview: NCI In Vivo Anticancer Drug Screen. Data for tumor model HT29;CX-1 Human Adenocarcinoma (MER+) (intrarenal inoculation) in NU/NU Swiss (nude) mice
experimental_conditions: endpoint: mean tumor weight change; dose: 1800.0 mg/kg/injection; schedule: Q04DX004 (sc); vehicle: Klucel (hydroxypropylcellulose) (HPC); higher = larger tumour
Results filed as inconclusive are left out.
result_type: T/C

structure_smiles_string=Oc1c(Cl)cc(C(c2cc(Cl)c(O)c(Cl)c2)C(c2cc(Cl)c(O)c(Cl)c2)c2cc(Cl)c(O)c(Cl)c2)cc1Cl target_entity="nude mice, HT29 intrarenal xenograft, tumor weight T/C" test_value="96 % of control"

Okay, next one:
Looking up COc1cc(OC)c(OC)cc1/C=C\c1ccnc2ccccc12 , I see its T/C listed as 67 % of control

* * *

Readings of T/C for the listed compounds
Tested on: nude mice, HT29 intrarenal xenograft, tumor weight T/C
assay_overview: NCI In Vivo Anticancer Drug Screen. Data for tumor model HT29;CX-1 Human Adenocarcinoma (MER+) (intrarenal inoculation) in NU/NU Swiss (nude) mice
experimental_conditions: endpoint: mean tumor weight change; dose: 0.13 mg/kg/injection; schedule: Q01DX010 (sc); vehicle: saline; higher = larger tumour
Inconclusive results are not listed.

Below, 4 compounds whose answers are already recorded.
compound="Cc1cc2c(c3oc(C4(C)OC4C4OC4C)cc(=O)c13)C(=O)c1c(O)c(C3CC(C)(N(C)C)C(O)C(C)O3)cc(C3CC(N(C)C)C(O)C(C)O3)c1C2=O (stereo not given)" test_value="50 % of control"
compound=O=NNc1ccccn1 test_value="150 % of control"
compound=CC[C@]1(O)C[C@H]2CN(CCc3c([nH]c4ccccc34)[C@@](C(=O)OC)(c3cc4c(cc3OC)N(C=O)[C@H]3[C@@](O)(C(=O)OC)[C@H](OC(C)=O)[C@]5(CC)C=CCN6CC[C@]43[C@@H]65)C2)C1 test_value="86 % of control"
compound="N#Cc1cn(C2OC(CO)C(O)C2O)c2ncnc(N)c12 (stereo not given)" test_value="81 % of control"

Kindly review the next compound as well.
Item: COC1=C(N)C(=O)c2nc(-c3nc(C(=O)O)c(C)c(-c4ccc(OC)c(OC)c4O)c3N)ccc2C1=O | T/C: -33 % of control
